assay: protein stability index of a GFP-peptide fusion (GPS, HEK-293T) (PSI 1-6); higher = more stable; details: treatment: MLN4924 1 uM, 8 h; c terminus: a fixed tail appended;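 note: 24-mer peptide tiles fused after GFP, lentivirally expressed, FACS-sorted into six equal bins by GFP/DsRed ratio, decoded by Illumina sequencing, PSI is the read-weighted mean bin number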
Class (required): determined from protein stability index; valid ranges are lower (below 3), middle (3 to below 4), upper (4 or more)

[in] # classify by protein stability index band: QQLEEELLRAKIEVEKLKAIRLRH [RAD54B]
[out] upper

[in] Which class does ARGAGPPEPLRICPLHISVKEELD [TRIM35] fall in?
[out] upper

[in] Could you tell me which band VEGEQQAWFGFAGTPGYLSPEVLR [CAMK2A] belongs to?
[out] middle

[in] Would you mind sorting TILLDGRRVKLQLWDTSGQGRFCT [RAB40B] into the appropriate category?
[out] lower

[in] The entry to classify is GWSLGRWTHDGIDINNNFPDLNTL [CPXM2] ; which class holds it?
[out] lower

[in] For EVGMVKCGSRRERCGYRLVRRQRS [ESR2] , which protein stability index bin applies?
[out] middle

***
[in] Sort DILEVKRLLDHQDNILSLINVNDL [WDR41] into one of the categories.
[out] lower

[in] For the record LQVAGLSEEQLQEPITGWRKTVCH [LPCAT4] , report the class its protein stability index corresponds to.
[out] middle

[in] In plain terms, what class is GCLENMPEADCIPKEQLSTSFQWV [PLK2] ?
[out] middle

[in] For this sequence, which bin applies? IFSAPNYCYRCGNQAAIMELDDTL [PPP2CA]
[out] lower

---

test: protein stability index of a GFP-peptide fusion (GPS, HEK-293T) (PSI 1-6); higher = more stable; details: treatment: DMSO; c terminus: a fixed tail appended
Listed here: items and their measured protein stability index.
Field format: numeric only.

[in] Any idea what its protein stability index is? The sequence is DRVQVERDGLAEDLAALKQRLEEE [PRPH]
[out] 5.49

[in] What does the data say about its protein stability index? Entry: KPGKGADLSKPPCRKAKEIRKERK [ATE1]
[out] 4.65

[in] # get_value(readout='protein stability index', item= MGHIKPDLIDVDLIRGSTFAKAKP [PHTF1] )
[out] 3.56

[in] Given RLFPYSQYYRWLNYGGVIKNYFQH [PRIM1] , state its recorded protein stability index.
[out] 2.15

Here is another sequence to look at.
[in] Which measured protein stability index value corresponds to ICTRKPEEIRGGGLLKYCSLLVHG [TENT5D] ?
[out] 2.24

---

test: protein stability index of a GFP-peptide fusion (GPS, HEK-293T) (PSI 1-6); higher = more stable; settings: treatment: MLN4924 1 uM, 8 h; c terminus: a fixed tail appended
Outcome label depends on protein stability index relative to 3: at/above gives criterion met, below gives criterion not met.

[in] # check: protein stability index of LSRHSKGLQILGHTLRASMRELGL [KCNA4] is greater than or equal to 3
[out] criterion not met

[in] Does protein stability index meet or surpass 3 for VGGKIVGSLCAIAGVLTIALPVPV [KCNA4] ?
[out] criterion not met

[in] Check this sequence for protein stability index at or above 3: NISDADVHNAMDNYECNLYTFLYL [FEM1B]
[out] criterion not met

[in] hey, is protein stability index for this one >= 3? ERQGNGQQAMSLAILRVIRLVRVF [KCNA3]
[out] criterion not met

[in] Identify whether the reported protein stability index of the following sequence is 3 or greater: VPRAGPLTVNTEAQQLLREFEEAT [FOXJ1]
[out] criterion met

New cases:
[in] Quick check: does FDALDDYEHHYHTLHGNVCSFCKR [ZNF511] have protein stability index greater than or equal to 3?
[out] criterion met
